NF-kB SEAP reporter activity: recorded values
Test system: RAW-Dual
Assay: NF-kB SEAP reporter activity, fold change vs agonist alone; higher = enhanced NF-kB activity
Settings: library stock concentration (final ~1000-fold dilution): 10 mM; cytotoxicity flag (confluency mask): not cytotoxic; agonist: MPLA (TLR4) […]
Whole data set: some 2,900 compounds, median “NF-kB SEAP reporter activity, fold change vs agonist alone” near 0.99, cut for the highest 2% near 2.6. This is one part of a sample in which the highest values are shown more often than they occur.
Please give the numeric answer without any surrounding text.

Here's what some known entries look like.
Cc1cc(N2CCOCC2)cc2[nH]c(-c3c(NCC(O)c4cccc(Cl)c4)cc[nH]c3=O)nc12 (stereo not given) ... 0.802
Cc1cc(N2CCOCC2)ccc1Nc1nc(NC2CCCCC2)c2nc[nH]c2n1 ... 1.04
COC1/C=C/OC2(C)Oc3c(C)c(O)c4c(O)c(c(/C=N/N5CCN(C)CC5)c(O)c4c3C2=O)NC(=O)/C(C)=C/C=C/C(C)C(O)C(C)C(O)C(C)C(OC(C)=O)C1C (stereo not given) ... 0.877
C=C1CCC2C(C)(COC(=O)CCC(=O)O)C(OC(=O)CCC(=O)O)CCC2(C)C1/C=C/C1=CCOC1=O (stereo not given) ... 0.985

Task: Field request: NF-kB SEAP reporter activity | item: O=S(=O)(NCCSSCCNS(=O)(=O)c1cc(Cl)ccc1Cl)c1cc(Cl)ccc1Cl
Output: 1.03

Task: # iterate: COc1ccccc1S(=O)(=O)Nc1ccc2c(c1)CN(C)C(=O)N2
Output: 2.51

Task: # iterate: CCCCCCCCCCCCCCCC(=O)OCC(O)C1OC(O)=C(O)C1=O (stereo not given)
Output: 1.01

Task: # iterate: Cc1ccc([N+](=O)[O-])cc1S(=O)(=O)N(C)C
Output: 1.14

Task: # iterate: CNC(=O)c1ccccc1Nc1nc(Nc2ccc(N3CCOCC3)cc2OC)ncc1Cl
Output: 0.594
